So I've got a bunch of binders here, and I need their FXa assay OD, 10 nM Ab, 10 nM TFPI values.
# Measurement target: recombinant human TFPI (tissue factor pathway inhibitor) (human, UniProt P10646 29-304)
# Assay notes: cell-based or functional assay
Just the number, please.

QUERY: What measured FXa assay OD, 10 nM Ab, 10 nM TFPI goes with clone 1 (antibody, V domains shown) VH: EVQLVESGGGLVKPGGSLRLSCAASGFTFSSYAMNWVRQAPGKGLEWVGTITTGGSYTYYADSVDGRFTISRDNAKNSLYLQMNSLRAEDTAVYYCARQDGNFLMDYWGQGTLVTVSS VL: DVVMTQTPLSLPVTLGQPASISCKSSPSLLDSDGKTYLNWLQQRPGQSPKRLIYLVSKLDSGVPDRFTGSGSGTDFTLKISRVEAEDVGVYYCWQGTHFPFTFGQGTKVEIKR ?
RESULT: 0.381

QUERY: What about clone 8 (antibody, V domains shown) VH: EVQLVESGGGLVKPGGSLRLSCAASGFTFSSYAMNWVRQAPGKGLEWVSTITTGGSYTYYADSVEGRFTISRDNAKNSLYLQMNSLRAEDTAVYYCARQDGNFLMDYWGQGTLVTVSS VL: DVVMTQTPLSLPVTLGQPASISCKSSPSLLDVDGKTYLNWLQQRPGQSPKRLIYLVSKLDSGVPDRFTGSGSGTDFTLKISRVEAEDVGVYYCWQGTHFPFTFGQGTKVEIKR ?
RESULT: 0.527

QUERY: Again, but for clone 10 (antibody, V domains shown) VH: EVQLVESGGGLVKPGGSLRLSCAASGFTFSSYAMNWVRQAPGKGLEWVSTITTGGSYTYYADSVQGRFTISRDNAKNSLYLQMNSLRAEDTAVYYCARQDGNFLMDYWGQGTLVTVSS VL: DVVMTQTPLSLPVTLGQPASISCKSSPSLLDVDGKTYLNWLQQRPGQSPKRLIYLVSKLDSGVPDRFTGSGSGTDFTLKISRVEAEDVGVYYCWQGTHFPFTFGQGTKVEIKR
RESULT: 0.09
